target: FPR1 (Homo sapiens); experiment: Change in calcium activity by peptide, FPR1 activation effect; conditions: calcium activity (Fura-2), graded per Table 3, read-out: EC50 for [Ca^2+] FPR1
Sequence (P21462 whole entry, species assumed): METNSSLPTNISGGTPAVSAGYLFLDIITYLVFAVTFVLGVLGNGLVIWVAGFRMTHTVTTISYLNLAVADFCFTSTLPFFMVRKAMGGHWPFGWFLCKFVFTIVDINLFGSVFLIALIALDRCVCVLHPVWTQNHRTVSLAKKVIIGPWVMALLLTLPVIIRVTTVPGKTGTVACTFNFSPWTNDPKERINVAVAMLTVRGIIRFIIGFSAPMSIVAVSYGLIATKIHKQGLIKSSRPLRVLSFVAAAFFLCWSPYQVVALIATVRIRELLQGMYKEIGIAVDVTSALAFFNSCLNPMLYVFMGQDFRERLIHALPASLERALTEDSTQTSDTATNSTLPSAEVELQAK
Peptide text beside a SMILES is read from it.
Recorded EC50, one value per entry.

Use the examples below as a reference point.
CSCC[C@@H](NC(=O)[C@@H]1CCCN1C(=O)[C@H](CCCCN)NC(=O)[C@H](Cc1ccc(O)cc1)NC(=O)[C@H](CCCNC(=N)N)NC(=O)[C@H](Cc1c[nH]c2ccccc12)NC(C)=O)C(N)=O [Peptide 76] (HELM PEPTIDE1{[ac].W.R.Y.K.P.[dM].[am]}$$$$V2.0) | 1000 to 10000 nM
CSCC[C@H](N)C(=O)N[C@@H](CCCNC(=N)N)C(=O)N[C@@H](Cc1ccc(O)cc1)C(=O)N[C@@H](CCCCN)C(=O)N[C@H](C(=O)N[C@H](CCSC)C(N)=O)C(C)C [Peptide 13] (HELM PEPTIDE1{M.R.Y.K.V.[dM].[am]}$$$$V2.0) | > 10000 nM
CSCC[C@H](N)C(=O)N[C@@H](CCCCN)C(=O)N[C@@H](Cc1ccc(O)cc1)C(=O)N[C@@H](Cc1c[nH]c2ccccc12)C(=O)N1CCC[C@H]1C(=O)N[C@H](CCSC)C(N)=O [Peptide 113] (HELM PEPTIDE1{M.K.Y.W.P.[dM].[am]}$$$$V2.0) | 1000 to 10000 nM

Please find the next compound below.
## Input Would you mind telling me what EC50 value was observed for CSCC[C@H](NC(C)=O)C(=O)N[C@@H](CCCNC(=N)N)C(=O)N[C@@H](Cc1ccc(O)cc1)C(=O)N[C@@H](Cc1c[nH]c2ccccc12)C(=O)N[C@H](C(=O)N[C@H](CCSC)C(N)=O)C(C)C [Peptide 105] (HELM PEPTIDE1{[ac].M.R.Y.W.V.[dM].[am]}$$$$V2.0) ?
## Output 101 to 1000 nM
